Measured R1 = Variant EC50/WT EC50 accompanies every entry in the list below.
system_under_test: human TAS1R2-WT/TAS1R3-T716M (Homo sapiens, UniProt Q7RTX0+Q8TE23, T716M)
Construct: expressed in transfected cells; host or cells: HEK293T stably expressing Gα16gust44
Sequence (Q8TE23 20-839): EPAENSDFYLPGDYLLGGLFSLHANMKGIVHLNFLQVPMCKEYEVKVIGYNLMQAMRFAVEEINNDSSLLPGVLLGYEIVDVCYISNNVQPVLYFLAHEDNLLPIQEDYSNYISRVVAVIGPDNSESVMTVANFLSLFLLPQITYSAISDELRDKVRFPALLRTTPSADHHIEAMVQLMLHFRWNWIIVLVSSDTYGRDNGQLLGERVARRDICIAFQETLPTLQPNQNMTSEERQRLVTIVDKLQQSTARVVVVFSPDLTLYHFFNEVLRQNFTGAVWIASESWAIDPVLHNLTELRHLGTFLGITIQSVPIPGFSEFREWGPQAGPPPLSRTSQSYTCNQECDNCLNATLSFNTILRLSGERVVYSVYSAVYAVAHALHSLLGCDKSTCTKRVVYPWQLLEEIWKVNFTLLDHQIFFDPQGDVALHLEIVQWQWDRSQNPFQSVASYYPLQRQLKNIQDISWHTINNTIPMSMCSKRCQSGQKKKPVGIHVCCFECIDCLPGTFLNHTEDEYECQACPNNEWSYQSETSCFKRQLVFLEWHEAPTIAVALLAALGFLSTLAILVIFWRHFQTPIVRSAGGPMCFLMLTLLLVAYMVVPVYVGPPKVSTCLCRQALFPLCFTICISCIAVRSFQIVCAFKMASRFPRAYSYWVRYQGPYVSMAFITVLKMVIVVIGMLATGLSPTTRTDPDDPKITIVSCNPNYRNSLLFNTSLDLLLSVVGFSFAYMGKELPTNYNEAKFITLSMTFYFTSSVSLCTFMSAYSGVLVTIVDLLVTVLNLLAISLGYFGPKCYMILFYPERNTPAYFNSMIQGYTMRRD
Sequence (Q7RTX0 21-852 T716M): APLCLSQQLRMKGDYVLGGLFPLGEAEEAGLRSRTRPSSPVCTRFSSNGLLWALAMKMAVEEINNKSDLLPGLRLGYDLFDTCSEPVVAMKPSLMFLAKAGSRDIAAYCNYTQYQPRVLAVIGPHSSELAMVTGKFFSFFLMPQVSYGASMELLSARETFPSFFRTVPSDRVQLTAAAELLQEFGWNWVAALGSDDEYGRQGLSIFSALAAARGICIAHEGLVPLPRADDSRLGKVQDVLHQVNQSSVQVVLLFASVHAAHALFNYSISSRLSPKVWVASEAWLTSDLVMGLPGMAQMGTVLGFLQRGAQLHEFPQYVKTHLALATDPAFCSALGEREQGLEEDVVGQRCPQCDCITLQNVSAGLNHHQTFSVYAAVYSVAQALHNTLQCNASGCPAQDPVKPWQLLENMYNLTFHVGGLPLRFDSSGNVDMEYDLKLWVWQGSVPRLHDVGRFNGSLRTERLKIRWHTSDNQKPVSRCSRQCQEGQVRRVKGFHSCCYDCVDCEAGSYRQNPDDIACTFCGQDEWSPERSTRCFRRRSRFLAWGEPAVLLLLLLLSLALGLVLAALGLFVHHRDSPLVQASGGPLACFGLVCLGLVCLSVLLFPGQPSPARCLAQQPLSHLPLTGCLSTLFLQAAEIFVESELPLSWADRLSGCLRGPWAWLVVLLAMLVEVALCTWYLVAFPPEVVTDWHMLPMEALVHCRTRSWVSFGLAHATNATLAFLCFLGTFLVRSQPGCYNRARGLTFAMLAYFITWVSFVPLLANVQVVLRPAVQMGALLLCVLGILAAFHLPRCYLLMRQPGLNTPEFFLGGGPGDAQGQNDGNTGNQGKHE
assay_method_text: Calcium mobilisation assay, TAS1R2-WT with TAS1R3 variant T716M
Format: cell-based
The answer should be a number; do not append a unit.

molecule	R1 = Variant EC50/WT EC50
C=C(C)[C@@H]1CC=C(/C=N/O)CC1	1.6
C=C1C[C@@]23CC[C@H]4[C@@](C)(CCC[C@@]4(C)C(=O)O[C@@H]4O[C@H](CO)[C@@H](O)[C@H](O[C@@H]5O[C@H](CO)[C@@H](O)[C@H](O)[C@H]5O)[C@H]4O[C@@H]4O[C@H](CO)[C@@H](O)[C@H](O)[C@H]4O)[C@@H]2CC[C@]1(O[C@@H]1O[C@H](CO)[C@@H](O)[C@H](O[C@@H]2O[C@H](CO)[C@@H](O)[C@H](O)[C@H]2O)[C@H]1O[C@@H]1O[C@H](CO)[C@@H](O)[C@H](O)[C@H]1O)C3 [Rebaudioside M, rebaudioside M]	0.8

Read the next record carefully.
Task item: So what's the measured R1 = Variant EC50/WT EC50 for this one? OC[C@H]1O[C@H](O[C@]2(CCl)O[C@H](CCl)[C@@H](O)[C@@H]2O)[C@H](O)[C@@H](O)[C@H]1Cl
Reply: 1.5

----------
system_under_test: human TAS1R2-WT/TAS1R3-L823F (Homo sapiens, UniProt Q7RTX0+Q8TE23, L823F)
Construct: expressed in transfected cells; host or cells: HEK293T stably expressing Gα16gust44
assay_method_text: Calcium mobilisation assay, TAS1R2-WT with TAS1R3 variant L823F
Format: cell-based
observation_type: R1 = Variant EC50/WT EC50
The answer should be a number; do not append a unit.

Take a look at these entries with their results.
compound	system_under_test	R1 = Variant EC50/WT EC50
COC(=O)[C@H](Cc1ccccc1)NC(=O)[C@H](CC(=O)O)NCCC(C)(C)C [Neotame]	human TAS1R2-WT/TAS1R3-L823F (Homo sapiens, UniProt Q7RTX0+Q8TE23, L823F)	0.9
C=C1C[C@@]23CC[C@H]4[C@@](C)(CCC[C@@]4(C)C(=O)O[C@@H]4O[C@H](CO)[C@@H](O)[C@H](O[C@@H]5O[C@H](CO)[C@@H](O)[C@H](O)[C@H]5O)[C@H]4O[C@@H]4O[C@H](CO)[C@@H](O)[C@H](O)[C@H]4O)[C@@H]2CC[C@]1(O[C@@H]1O[C@H](CO)[C@@H](O)[C@H](O[C@@H]2O[C@H](CO)[C@@H](O)[C@H](O)[C@H]2O)[C@H]1O[C@@H]1O[C@H](CO)[C@@H](O)[C@H](O)[C@H]1O)C3 [Rebaudioside M, rebaudioside M]	human TAS1R2-WT/TAS1R3-L823F (Homo sapiens, UniProt Q7RTX0+Q8TE23, L823F)	0.8

Read the next record carefully.
Task item: So what's the measured R1 = Variant EC50/WT EC50 for this one? C=C(C)[C@@H]1CC=C(/C=N/O)CC1 [Perillartine, perillartine]
Reply: 0.7

----------
system_under_test: human TAS1R2-I234V/TAS1R3-WT (Homo sapiens, UniProt Q7RTX0+Q8TE23, I234V)
Construct: expressed in transfected cells; host or cells: HEK293T-Gα16gust44
assay_method_text: Calcium mobilisation assay, TAS1R2 variant I234V with TAS1R3-WT
Assay type: cell-based
observation_type: R1 = Variant EC50/WT EC50
The answer should be a number; do not append a unit.

Task item: Lookup: R1 = Variant EC50/WT EC50 / human TAS1R2-I234V/TAS1R3-WT (Homo sapiens, UniProt Q7RTX0+Q8TE23, I234V) / C[C@H](CC[C@@H](O[C@@H]1O[C@H](CO[C@@H]2O[C@H](CO)[C@@H](O)[C@H](O)[C@H]2O)[C@@H](O)[C@H](O)[C@H]1O[C@@H]1O[C@H](CO)[C@@H](O)[C@H](O)[C@H]1O)C(C)(C)O)[C@H]1CC[C@@]2(C)[C@@H]3CC=C4[C@@H](CC[C@H](O[C@@H]5O[C@H](CO[C@@H]6O[C@H](CO)[C@@H](O)[C@H](O)[C@H]6O)[C@@H](O)[C@H](O)[C@H]5O)C4(C)C)[C@]3(C)[C@H](O)C[C@]12C [Mogroside V, mogroside V]
Reply: 1.1

----------
Measured EC50 accompanies every entry in the list below.
system_under_test: human TAS1R2-WT/TAS1R3-P780A (Homo sapiens, UniProt Q7RTX0+Q8TE23, P780A)
Construct: expressed in transfected cells; host or cells: HEK293T stably expressing Gα16gust44
assay_method_text: Calcium mobilisation assay, TAS1R2-WT with TAS1R3 variant P780A
Type: cell-based
run_conditions: read-out: EC50
Source text: The coding sequences for TAS1R2 and TAS1R3 were commercially synthesised, and the human codon was optimised for expression in human cells. […] The HEK293T cells were kindly provided by Jay P. Slack (Givaudan Flavors Corporation; Cincinnati, OH, USA). […] The Ca^2+ changes were expressed as fractional changes in fluorescent light intensity: ΔF/F = (F − F0)/F0, where F was the fluorescent light intensity at each point, and F0 was the value of emitted fluorescent light prior to stimulus application. […]
Dear colleague, please return just the value in µM, with no unit written.

Task item: Lookup: EC50 / human TAS1R2-WT/TAS1R3-P780A (Homo sapiens, UniProt Q7RTX0+Q8TE23, P780A) / CC1=CC(=O)NS(=O)(=O)O1 [Acesulfame K, acesulfame K]
Reply: 421

Task item: Lookup: EC50 / human TAS1R2-WT/TAS1R3-P780A (Homo sapiens, UniProt Q7RTX0+Q8TE23, P780A) / C=C1C[C@@]23CC[C@H]4[C@@](C)(CCC[C@@]4(C)C(=O)O[C@@H]4O[C@H](CO)[C@@H](O)[C@H](O[C@@H]5O[C@H](CO)[C@@H](O)[C@H](O)[C@H]5O)[C@H]4O[C@@H]4O[C@H](CO)[C@@H](O)[C@H](O)[C@H]4O)[C@@H]2CC[C@]1(O[C@@H]1O[C@H](CO)[C@@H](O)[C@H](O[C@@H]2O[C@H](CO)[C@@H](O)[C@H](O)[C@H]2O)[C@H]1O[C@@H]1O[C@H](CO)[C@@H](O)[C@H](O)[C@H]1O)C3 [Rebaudioside M, rebaudioside M]
Reply: 23

Task item: Lookup: EC50 / human TAS1R2-WT/TAS1R3-P780A (Homo sapiens, UniProt Q7RTX0+Q8TE23, P780A) / OC[C@H]1O[C@H](O[C@]2(CCl)O[C@H](CCl)[C@@H](O)[C@@H]2O)[C@H](O)[C@@H](O)[C@H]1Cl [Sucralose]
Reply: 149

Task item: Lookup: EC50 / human TAS1R2-WT/TAS1R3-P780A (Homo sapiens, UniProt Q7RTX0+Q8TE23, P780A) / COc1ccc(CCC(=O)c2c(O)cc(O[C@@H]3O[C@H](CO)[C@@H](O)[C@H](O)[C@H]3O[C@@H]3O[C@@H](C)[C@H](O)[C@@H](O)[C@H]3O)cc2O)cc1O [NHDC, neohesperidin dihydrochalcone]
Reply: 46.4

Cited source: paper PMC11945486
